- TESTED ON: Glutamate receptor ionotropic, kainate 2 (Homo sapiens, UniProt Q13002)
- Sequence (Q13002 whole entry): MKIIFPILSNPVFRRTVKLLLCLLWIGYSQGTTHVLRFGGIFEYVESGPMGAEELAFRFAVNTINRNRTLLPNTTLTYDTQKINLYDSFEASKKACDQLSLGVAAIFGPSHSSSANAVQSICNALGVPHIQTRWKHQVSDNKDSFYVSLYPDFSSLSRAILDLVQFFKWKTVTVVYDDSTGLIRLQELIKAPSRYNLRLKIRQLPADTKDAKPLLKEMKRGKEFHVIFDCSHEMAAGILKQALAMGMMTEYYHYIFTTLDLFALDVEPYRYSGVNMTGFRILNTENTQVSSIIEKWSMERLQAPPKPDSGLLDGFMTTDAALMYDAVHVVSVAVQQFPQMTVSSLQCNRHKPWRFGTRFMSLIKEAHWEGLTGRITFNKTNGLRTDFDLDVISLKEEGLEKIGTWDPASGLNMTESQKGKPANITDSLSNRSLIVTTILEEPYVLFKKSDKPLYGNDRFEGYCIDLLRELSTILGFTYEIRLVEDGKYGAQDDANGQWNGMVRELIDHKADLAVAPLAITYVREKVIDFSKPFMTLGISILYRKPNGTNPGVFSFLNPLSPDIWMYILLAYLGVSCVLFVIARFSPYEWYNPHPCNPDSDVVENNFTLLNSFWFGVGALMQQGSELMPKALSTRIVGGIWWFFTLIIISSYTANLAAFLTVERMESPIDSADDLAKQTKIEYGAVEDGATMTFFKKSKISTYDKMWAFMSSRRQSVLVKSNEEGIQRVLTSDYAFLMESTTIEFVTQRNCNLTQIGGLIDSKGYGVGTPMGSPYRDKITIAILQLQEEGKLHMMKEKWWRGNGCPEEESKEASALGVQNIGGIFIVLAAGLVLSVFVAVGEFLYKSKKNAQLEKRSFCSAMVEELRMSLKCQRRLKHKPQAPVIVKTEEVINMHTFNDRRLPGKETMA
pKi: −log10 of the molar value.
Short version: pKi at least 7 is true (1), less is false (0).

C=C(c1ccc(Oc2ccccc2)cc1)[C@H]1CN[C@H](C(=O)O)[C@H]1CC(=O)O :: false (0)

Test whether the molecule C=C(c1cccc(OCCC(c2ccccc2)c2ccccc2)c1)[C@@H]1CN[C@H](C(=O)O)[C@H]1CC(=O)O records pKi of 7 or higher.
false (0)

Test whether the molecule C=C(c1ccc(OCCc2ccccc2)c(OC)c1)[C@H]1CN[C@H](C(=O)O)[C@H]1CC(=O)O records pKi of 7 or higher.
false (0)
